Data credit: the supplement of paper PMC10127200

- Test system: 786-O
- ASSAY_PROTOCOL: Euclidean distance of Cell Painting phenotypic profile (signed KS, 77 features) to DMSO centroid (dimensionless distance); 5 or 10 uM (library dependent); higher = stronger phenotypic change vs DMSO (phenoactivity)
- CONDITION_DETAILS: 48 h
Structures can show the parent of a compound that is named as a salt.
MEASURED_ENDPOINT: Euclidean distance
Response field accepts a number only; no unit should be typed.

Query string: Tell me the measured Euclidean distance of COc1ccc(CN(CCN(C)C)c2ccccn2)cc1 [Pyrilamine Maleate] , please.
Result string: 0.832

Query string: Same for "O=C(O)c1ccc(N2C(=O)/C(=C\c3ccc(-c4ccc([N+](=O)[O-])cc4)o3)C=C2c2ccccc2)cc1"
Result string: 0.841

Query string: Now this one: "O=C(Nc1ccncc1)c1cc([N+](=O)[O-])ccc1Cl"
Result string: 1.2

Query string: Another molecule to check: COc1cc2nccc(Oc3ccc(NC(=O)NC4CC4)c(Cl)c3)c2cc1C(N)=O [lenvatinib Mesylate]
Result string: 1.2

Query string: Check Nc1nc2cc(-c3ccc4ncc(C(=O)N5CCOCC5)n4c3)ccc2o1 [Serabelisib (INK-1117.MLN-1117.TAK-117)] too.
Result string: 1.02

Query string: Please answer likewise for CCOc1ccc2nc3cc(N)ccc3c(N)c2c1 [Ethacridine lactate monohydrate]
Result string: 2.72

Query string: Could you do the same for CCCc1nc(C(C)(C)O)c(C(=O)O)n1Cc1ccc(-c2ccccc2-c2nnn[nH]2)cc1 [Olmesartan] , please?
Result string: 1.21

Query string: Same question, NC(=O)[C@@H]1CCCN1C(=O)[C@H](Cc1c[nH]cn1)NC(=O)[C@@H]1CCC(=O)N1 [Protirelin] this time
Result string: 1.34

###

- Tested on: OVCAR4
- ASSAY_PROTOCOL: Euclidean distance of Cell Painting phenotypic profile (signed KS, 77 features) to DMSO centroid (dimensionless distance); 5 or 10 uM (library dependent); higher = stronger phenotypic change vs DMSO (phenoactivity)
- CONDITION_DETAILS: 48 h
Give measured Euclidean distance for each item. Keep answers brief.
Give the figure by itself; no unit, no explanation.

Query string: Euclidean distance lookup needed for CC(C)[C@H](NC(=O)[C@H](CC(=O)O)NC(=O)[C@H](CCCCN)NC(=O)[C@@H](N)CCCN=C(N)N)C(=O)N[C@@H](Cc1ccc(O)cc1)C(=O)O [Thymopentin] , thanks.
Result string: 1.06

Query string: And CO[C@@H]1[C@@H](O[C@@H]2O[C@H](C)[C@@H](O[C@H]3C[C@@](C)(O)[C@@H](OC(=O)CC(C)C)[C@H](C)O3)[C@H](N(C)C)[C@H]2O)[C@@H](CC=O)C[C@@H](C)[C@@H](O)/C=C/C=C/C[C@@H](C)OC(=O)C[C@H]1OC(C)=O [Josamycin] ?
Result string: 1.06

Query string: What do you get for O=C(O)Cc1ccccc1Nc1c(Cl)cccc1Cl [Diclofenac Potassium] ?
Result string: 0.893

Query string: Record: COc1ccc(CNc2nc(N3CCC[C@H]3CO)ncc2C(=O)NCc2ncccn2)cc1Cl [Avanafil]
Result string: 1.44

Query string: Please give the result for "CCN1C[C@H](C)n2c(c(O)c3c(=O)n(Cc4ccc(F)c(Cl)c4)nc(C(=O)NC)c32)C1=O" too.
Result string: 1

Query string: Note, next up: Nc1ncnc2c1ncn2[C@@H]1O[C@H](CO)[C@@H](O)[C@H]1O [Adenosine]
Result string: 1.22
